FYI, the data here is from PubChem BioAssay (NCATS).

target: Cellular tumor antigen p53 (Homo sapiens) (UniProt P04637); assay: Primary qHTS for small molecule compounds that upregulate eGFP-tagged delta133p53alpha (in N-terminal) cells. (AID 2060322); settings: NCI-H358 eGFP-delta133p53alpha fluorescence, 24 h; stronger effect = higher value;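 note: cells pre-induced with doxycycline then dosed without doxycycline; series mostly up to about 56 µM; 0% = DMSO vehicle and 100% = reference activator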
Sequence (P04637 whole entry, looked up): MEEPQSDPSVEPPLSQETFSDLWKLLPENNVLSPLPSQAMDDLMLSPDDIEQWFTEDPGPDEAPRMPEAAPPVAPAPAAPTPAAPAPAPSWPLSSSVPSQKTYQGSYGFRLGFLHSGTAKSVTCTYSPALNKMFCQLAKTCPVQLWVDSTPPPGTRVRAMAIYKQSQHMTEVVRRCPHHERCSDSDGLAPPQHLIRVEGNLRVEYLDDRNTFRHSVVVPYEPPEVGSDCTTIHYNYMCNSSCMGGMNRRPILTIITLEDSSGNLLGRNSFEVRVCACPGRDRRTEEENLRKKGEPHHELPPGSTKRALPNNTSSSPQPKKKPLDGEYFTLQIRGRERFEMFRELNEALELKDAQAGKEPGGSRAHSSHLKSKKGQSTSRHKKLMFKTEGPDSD
Inconclusive results are not listed.
measure: activation (%)
The reply should contain only the number, in %.

For the compound `COc1ccc2c3n(c(=NC(=O)c4cccnc4)nc2c1OC)CCN3` , give its measured activation value.
-16.5

For the compound C[C@H](NC(c1cccc(C[P+](=O)O)c1)[C@H](C)O)c1ccc(Cl)c(Cl)c1 (stereo not given in full) , give its measured activation value.
9

For the compound `CC(C)(C)Nc1nc(Nc2ccc(C(N)=O)cc2)cc(N)c1C#N` , give its measured activation value.
11

For the compound `COc1ccccc1N1CCN(CCCCNC(=O)c2ccc(-c3cscn3)cc2)CC1` , give its measured activation value.
4.3

For the compound CCCC1=CC2=C(CO1)C(=O)C(C)(OC(=O)c1c(C)cc(OC)cc1O)C(O)C2 (stereo not given) , give its measured activation value.
-24.4

For the compound `COc1ccc2cc(C=O)ccc2c1` , give its measured activation value.
-1.69

For the compound `CCN(CC)C(=O)N1CCN(C)CC1` , give its measured activation value.
-2.51

For the compound `CCC(=C(CC)c1ccc(O)cc1)c1ccc(O)cc1` , give its measured activation value.
-17

Continuing:
For the compound `CC(C)(C)[C@H](NC(=O)c1ccc(N)c(Cl)c1)C(=O)N1CCC[C@@H]1C(=O)N[C@H](C#N)CC(=O)O` , give its measured activation value.
-1.07

For the compound `O=C(/C=C/c1ccc(O)cc1)OC[C@H]1O[C@@H](OC(=O)/C=C/c2ccccc2)[C@H](O)[C@@H](O)[C@@H]1O` , give its measured activation value.
-1.53
